Attribution: the kinase profiling compilation of Christmann-Franck et al. (2016)

- system under test: MARK4 (human)
- method summary: radiometric filter-binding kinase assay, Kinase HotSpot
- condition notes: compound 0.5 µM; ATP 10 µM
test readout: residual activity (%)

[[record]]
smiles_structure = "CN[C@@H]1C[C@H]2O[C@@](C)([C@@H]1OC)n1c3ccccc3c3c4c(c5c6ccccc6n2c5c31)C(=O)NC4"
units_label = "%"
endpoint_result = -0.0069

[[record]]
smiles_structure = "Nc1ncnc2c1cnn2-c1ccccc1"
units_label = "%"
endpoint_result = 89.7

[[record]]
smiles_structure = "FC(F)(F)c1ccc(/C=C/c2nc(COc3ccc(CCCCn4ccnn4)cc3)co2)cc1"
units_label = "%"
endpoint_result = 97.9

[[record]]
smiles_structure = "O=C(c1ccccc1)c1ccc(N2CCOCC2)cc1O"
units_label = "%"
endpoint_result = 100

